Reference source: patent US20160264593A1

Assay: Pharmacokinetic study of 153 (and metabolite endothal) in SD rats, iv and po; plasma, liver, brain
Assay type: in vivo
Settings: female, SD, rat, in vivo, iv, 1.25 mg/kg, iv 1.25 mg/kg, 2 hr, Mean; read-out: 153 brain concentration
property-label: concentration at 2 h (ng/g)
Output spec: scalar in ng/g, unitless text.

Any idea what concentration at 2 h was measured for CCCOC(=O)C1C2CCC(O2)C1C(=O)N1CCN(C)CC1 (stereo not shown) [Compound 153] ?
4.4

====

Test: Pharmacokinetic study of 153 (and metabolite endothal) in SD rats, iv and po; plasma, liver, brain
Type: in vivo
Conditions: female, Sprague-Dawley (SD), rat, in vivo, iv, 1.25 mg/kg, Brain, 1.25 mg/kg IV, rat 1; read-out: Cmax
property-label: Cmax (ng/g)
# number only, unit ng/g dropped from output

Name the recorded Cmax for CCCOC(=O)C1C2CCC(O2)C1C(=O)N1CCN(C)CC1 (stereo not shown) .
45

====

Test: Pharmacokinetic study of 157 (and metabolite endothal) in SD rats, iv and po; plasma, liver, brain
Format: in vivo
Conditions: female, SD, rat, in vivo, iv, 1.5 mg/kg, 157 iv 1.5 mg/kg; read-out: mean Cmax of 157 in liver
Protocol: The blood, liver and brain tissue samples were collected at predetermined times from rats. […] Compound were diluted shortly before use in 4% sodium bicarbonate for sterile injection (this is the standard pediatric solution of NaHCO3 with a pH of about 8.5). Compound 153 was freshly prepared by diluting the drugs shortly before use in 4% sodium bicarbonate for sterile injection (this is the standard pediatric solution of NaHCO3 with a pH of about 8.5). […]
property-label: Cmax (ng/g)
Just the number please, in ng/g, no unit attached.

For CCCCCCCOC(=O)C1C2CCC(O2)C1C(=O)N1CCN(C)CC1 (stereo not shown) [Compound 157] , what is its reported Cmax?
297

====

Test: Pharmacokinetic study of 153 (and metabolite endothal) in SD rats, iv and po; plasma, liver, brain
Format: in vivo
Conditions: female, SD, rat, in vivo, iv, 1.25 mg/kg, iv 1.25 mg/kg, 1 hr, Rat 2; read-out: 153 liver concentration
property-label: concentration at 1 h (ng/g)
Supply the numeric figure in ng/g, leaving out any unit text.

Look up concentration at 1 h for this compound: CCCOC(=O)C1C2CCC(O2)C1C(=O)N1CCN(C)CC1 (stereo not shown)
121

====

Assay: Pharmacokinetic study of 153 (and metabolite endothal) in SD rats, iv and po; plasma, liver, brain
Format: in vivo
Settings: female, SD, rat, in vivo, po, 1.25 mg/kg, 153 in plasma, PO 1.25 mg/kg, Mean; read-out: T1/2 (converted)
property-label: half-life (min)
Number only, in min; omit the unit.

Name the recorded half-life for CCCOC(=O)C1C2CCC(O2)C1C(=O)N1CCN(C)CC1 (stereo not shown) [Compound 153] .
20.6

====

Test: Pharmacokinetic study of 157 (and metabolite endothal) in SD rats, iv and po; plasma, liver, brain
Format: in vivo
Conditions: female, Sprague-Dawley (SD), rat, in vivo, iv, 1.5 mg/kg, 157 in Liver, iv 1.5 mg/kg, rat 1; read-out: T1/2 (converted)
property-label: half-life (min)
Kindly answer with a numeric value in min, unit omitted.

Returns the measured half-life for the input compound. Input: CCCCCCCOC(=O)C1C2CCC(O2)C1C(=O)N1CCN(C)CC1 (stereo not shown) [Compound 157]
27.3

====

So I've got a bunch of compounds here, and I need their Tmax values.
Experiment: in vivo
Parameters: species or system SD rats
Conditions: male, Sprague-Dawley (SD), rat, iv, 1.4 mg/kg
Output spec: scalar in min, unitless text.

Given the entry CN1CCN(C(=O)C2C3CCC(O3)C2C(=O)O)CC1 (centres unmarked) , report its measured Tmax.
15

Now give it for CN1CCN(C(=O)C2C(C(=O)OCC(Cl)(Cl)Cl)[C@H]3CC[C@@H]2O3)CC1 (some centres unmarked) too.
15

====

Experiment: Pharmacokinetic study of 157 (and metabolite endothal) in SD rats, iv and po; plasma, liver, brain
Assay type: in vivo
Conditions: female, SD, rat, in vivo, iv, 1.5 mg/kg, iv 1.5 mg/kg, 1 hr, Mean; read-out: 157 brain concentration
property-label: concentration at 1 h (ng/g)
Respond numerically; units are ng/g and should not be typed.

Any idea what concentration at 1 h was measured for CCCCCCCOC(=O)C1C2CCC(O2)C1C(=O)N1CCN(C)CC1 (stereo not shown) ?
2.4

====

Tested on: PP2A
Test: PP2A activity in mouse livers after IP dosing (PP2A immunoprecipitation phosphatase assay, malachite green)
Format: in vivo, Balb/c mice
Settings: high dose IP (mpk: 100 1.5, 113 2.2, 151 1.6, 157 2.0), 6 h, liver
Assignment: determine reported Average Conc. (group of 3 mice) for the given compounds.

Average Conc. (group of 3 mice) lookup needed for CN1CCN(C(=O)C2C3CCC(O3)C2C(=O)O)CC1 (stereo not shown) , thanks.
197.91

Moving on to CCCCCCCOC(=O)C1C2CCC(O2)C1C(=O)N1CCN(C)CC1 (stereo not shown)
232.03

Same lookup for COC(=O)C1C2CCC(O2)C1C(=O)N1CCN(C)CC1 (stereo not shown) , please.
241.1

Now this one: CN1CCN(C(=O)C2C(C(=O)OCC(Cl)(Cl)Cl)[C@H]3CC[C@@H]2O3)CC1 (stereo partly shown)
104.16

====

Test: Pharmacokinetic study of 157 (and metabolite endothal) in SD rats, iv and po; plasma, liver, brain
Format: in vivo
Settings: female, SD (Sprague-Dawley), rat, in vivo, po, 1.5 mg/kg, 157 in plasma, PO 1.5 mg/kg, Mean; read-out: MRT (0-t)
property-label: MRT last (min)
Give your result in min as a bare value.

Query (molecule): CCCCCCCOC(=O)C1C2CCC(O2)C1C(=O)N1CCN(C)CC1 (stereo not shown) ; field requested: MRT last
56.8

====

Experiment: Pharmacokinetic study of 100 (and metabolite endothal) in SD rats, iv; plasma, liver, brain
Conditions: female, SD, rat, in vivo, iv, 0.5 mg/kg, Endothal liver concentration, 100 iv 0.5 mg/kg, SD rats, 0.25 hr, mean
property-label: concentration at 0.25 h (ng/g)
Write the number in ng/g without appending the unit.

Which concentration at 0.25 h is reported for this molecule? O=C(O)C1C2CCC(O2)C1C(=O)O (stereo not shown) [Endothal]
349

====

Test: Pharmacokinetic study of 100 (and metabolite endothal) in SD rats, iv; plasma, liver, brain
Settings: female, SD, rat, in vivo, iv, 1 mg/kg, Endothal liver concentration, 100 iv 1.0 mg/kg, SD rats, 0.25 hr, mean
property-label: concentration at 0.25 h (ng/g)
Answer format: numeric, ng/g implied, no suffix.

I would be grateful if you could share the reported concentration at 0.25 h for O=C(O)C1C2CCC(O2)C1C(=O)O (stereo not shown) [Endothal] .
1040

====

Experiment: Pharmacokinetic study of 153 (and metabolite endothal) in SD rats, iv and po; plasma, liver, brain
Format: in vivo
Settings: female, Sprague-Dawley (SD), rat, in vivo, iv, 1.25 mg/kg, Brain, 1.25 mg/kg IV, rat 1; read-out: MRT (0-t)
property-label: MRT last
For clarity, give the value followed by its unit.

What MRT last value was documented for this compound, CCCOC(=O)C1C2CCC(O2)C1C(=O)N1CCN(C)CC1 (stereo not shown) ?
56 min

====

Assay: Pharmacokinetic study of 157 (and metabolite endothal) in SD rats, iv and po; plasma, liver, brain
Assay type: in vivo
Conditions: female, SD (Sprague-Dawley), rat, in vivo, iv, 1.5 mg/kg, 157 in plasma, IV 1.5 mg/kg, rat 1; read-out: AUC
property-label: AUC (ng·h/mL)
Please state the figure in ng·h/mL; there is no need to write the unit.

What AUC value was documented for this molecule, CCCCCCCOC(=O)C1C2CCC(O2)C1C(=O)N1CCN(C)CC1 (stereo not shown) ?
47.1

====

Test: Pharmacokinetic study of 157 (and metabolite endothal) in SD rats, iv and po; plasma, liver, brain
Assay type: in vivo
Conditions: female, Sprague-Dawley (SD), rat, in vivo, iv, 1.5 mg/kg, 157 in Brain, iv 1.5 mg/kg, Mean; read-out: T1/2 (converted)
property-label: half-life (min)
Write the value in min as a bare number.

// query half-life value for entry CCCCCCCOC(=O)C1C2CCC(O2)C1C(=O)N1CCN(C)CC1 (stereo not shown)
9.72

====

Experiment: in vivo
Parameters: species or system SD rats
Details: male, SD, rat, iv, 1.4 mg/kg, Liver-plasma concentration ratio of 113
property-label: Kp at 1 h
// return just the number, without any unit appended

Item CN1CCN(C(=O)C2C(C(=O)OCC(Cl)(Cl)Cl)[C@H]3CC[C@@H]2O3)CC1 (stereo partly shown) has what recorded Kp at 1 h?
1.35
